Molecular target: β2-adrenoceptor (Rattus norvegicus)
Construct: Uteri of pregnant SD rats (pregnancy day 21) were isolated and longitudinal uterine muscle strips; from tissue; host or cells: longitudinal uterine muscle strips of pregnant SD rats
Sequence (P10608 whole entry): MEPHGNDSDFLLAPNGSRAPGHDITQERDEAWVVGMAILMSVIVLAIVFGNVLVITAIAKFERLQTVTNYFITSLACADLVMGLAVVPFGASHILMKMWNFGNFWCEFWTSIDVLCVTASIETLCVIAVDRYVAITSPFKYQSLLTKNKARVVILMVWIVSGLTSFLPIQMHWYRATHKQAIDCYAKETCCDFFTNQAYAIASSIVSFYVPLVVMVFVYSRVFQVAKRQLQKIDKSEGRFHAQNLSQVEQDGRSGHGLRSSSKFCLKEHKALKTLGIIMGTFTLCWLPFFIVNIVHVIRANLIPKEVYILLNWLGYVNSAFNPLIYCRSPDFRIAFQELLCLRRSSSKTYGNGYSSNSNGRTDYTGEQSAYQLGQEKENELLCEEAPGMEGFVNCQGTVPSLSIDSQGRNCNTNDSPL
Assay: β2-adrenoceptor stimulating effects: inhibition of spontaneous contraction of isolated pregnant rat uterus (Magnus method)
Settings: read-out: EC50 (molar concentration producing 50% inhibition of uterine contraction); isolated uterine muscle strips of pregnant SD rats (pregnancy day 21)
Experimental Readout: EC50 (nM)
Kindly provide the numeric value in nM only, without the unit symbol.

Looking up C[C@H](Cc1ccc(OCC(=O)O)cc1)NC[C@H](O)c1cccc(Cl)c1 [BRL-37344, reference compound] , I found its EC50 recorded as 9
